assay: forskolin-driven CRE-LacZ activity in PC12 – cell-based, CRE-LacZ reporter, forskolin-stimulated, primary screen (AID 1146); conditions: luminescence, 4.5 h, higher = more signal, called active from +8 up or from −8 down;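 also: PC12 cells with 6xCRE LacZ reporter stimulated by forskolin 10 µM; beta-galactosidase reporter signal reflecting CREB driven transcription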
Below: a set of entries, each annotated with reported z-score.
Just the number.

Worked set:
INSERT INTO measurements (compound, measure, assay_result) VALUES
  ('O=C1C[C@]2(c3ccc([N+](=O)[O-])cc3)C(=O)N(C3CC3)c3cc(CO)ccc3[C@H]2N1C1CCCCC1', 'z-score', 0.634),
  ('CC(C)c1nc2cc(Br)ccc2c(=O)o1', 'z-score', -0.524),
  ('CC(C)C[C@H]1NC(=O)C([C@@H](C)OCc2ccccc2)NC(=O)[C@@]23C(=O)N[C@@H](Cc4ccccc4)C2[C@H](C)[C@@]2(C)O[C@H]2C3/C=C/C/C=C\CNC1=O (some centres undefined)', 'z-score', -0.566);

Pending compound:
**Query** Can you look up the measured z-score of COc1ccc(C(=O)Nc2ccc3c(c2)[C@@]2(O[C@H](CCO)[C@@H]([Si](C)(C)c4ccc(OC)cc4)[C@@H]2C)C(=O)N3Cc2ccccc2)cc1 for me?
**Result** -0.352
